Tested on: giant foxtail (Setaria faberii)
EXPERIMENTAL_PROTOCOL: Test B pre-/postemergence plant response
Type: in vivo
CONDITION_CONTEXT: 31 g ai/ha, postemergence; scale 0 to 100, 0 is no effect, 100 is complete control
Description: […] Treated plants and controls were maintained in a greenhouse for 13 to 15 days, after which time all treated plants were visually evaluated and compared to controls. […]
ASSAY_ENDPOINT: Plant response rating, Foxtail, Giant

MOLECULE: CC(C)CC(=O)OC1=C(C(=O)c2cnc(-c3ccccc3)n(-c3ccccc3)c2=O)C(=O)CCC1 [Compound 83]
MEASURED_NUMBER: 80
//
MOLECULE: COCCCn1c(-c2cc(F)cc(F)c2)ncc(C(=O)C2=C(O)CCCC2=O)c1=O [Compound 120]
MEASURED_NUMBER: 75
//
MOLECULE: Cc1cc(-n2c(-c3ccccc3)ncc(C(=O)C3=C(O)CCCC3=O)c2=O)ccc1F [Compound 53]
MEASURED_NUMBER: 80
//
MOLECULE: CC(C)n1c(-c2ccccc2)ncc(C(=O)C2=C(O)CCCC2=O)c1=O [Compound 95]
MEASURED_NUMBER: 45
//
MOLECULE: CCCCc1ncc(C(=O)C2=C(O)CCCC2=O)c(=O)n1-c1ccc(C)cc1 [Compound 67]
MEASURED_NUMBER: 75
//
MOLECULE: COCCCn1c(-c2cccc(C)c2)ncc(C(=O)C2=C(O)CCCC2=O)c1=O [Compound 118]
MEASURED_NUMBER: 75

* * *

Tested on: downy bromegrass (Bromus tectorum)
EXPERIMENTAL_PROTOCOL: Test B pre-/postemergence plant response
Assay type: in vivo
CONDITION_CONTEXT: Postemergence, 125 g ai/ha; visual rating after 13 to 15 days, scale 0 (no effect) to 100 (complete control)
ASSAY_ENDPOINT: Plant response rating, Bromegrass, Downy

MOL: Cc1cc(C)cc(-n2c(-c3ccccc3)ncc(C(=O)C3=C(O)CCCC3=O)c2=O)c1
ASSAY_ENDPOINT: Plant response rating, Bromegrass, Downy
MEASURED_NUMBER: 10
--
MOL: CC(C)n1c(-c2ccccc2)ncc(C(=O)C2=C(O)CCCC2=O)c1=O
ASSAY_ENDPOINT: Plant response rating, Bromegrass, Downy
MEASURED_NUMBER: 0
--
MOL: COCCn1c(-c2ccccc2)ncc(C(=O)C2=C(O)CCCC2=O)c1=O
ASSAY_ENDPOINT: Plant response rating, Bromegrass, Downy
MEASURED_NUMBER: 25

* * *

Tested on: chickweed (Stellaria media)
EXPERIMENTAL_PROTOCOL: Test B postemergence plant response
Type: in vivo
CONDITION_CONTEXT: Postemergence, 31 g ai/ha; 0 to 100 scale (0 no effect, 100 complete control)
Source text: […] Treated plants and controls were maintained in a greenhouse for 13 to 15 days, after which time all treated plants were visually evaluated and compared to controls. […]

MOLECULE: CCCn1c(-c2cccc(Br)c2)ncc(C(=O)C2=C(O)CCCC2=O)c1=O
Plant response rating, Chickweed: 60
--
MOLECULE: CCn1c(-c2ccccc2)ncc(C(=O)C2=C(O)C3CCC(C3)C2=O)c1=O (stereo not drawn)
Plant response rating, Chickweed: 90
--
MOLECULE: COCCn1c(-c2cccc(Cl)c2)ncc(C(=O)C2=C(O)CCCC2=O)c1=O
Plant response rating, Chickweed: 70
--
MOLECULE: O=C1CCCC(O)=C1C(=O)c1cnc(-c2ccc(F)cc2)n(C2CCCCC2)c1=O
Plant response rating, Chickweed: 100
--
MOLECULE: O=C1CCCC(O)=C1C(=O)c1cnc(-c2cc(F)cc(F)c2)n(C2CCCCC2)c1=O
Plant response rating, Chickweed: 100
--
MOLECULE: O=C(C1=C(O)C2CCC(C2)C1=O)c1cnc(-c2ccsc2)n(CC2CCCO2)c1=O (stereo not drawn)
Plant response rating, Chickweed: 70

FYI, the data here is from patent US8952024B2.
